# TARGET DESC: MAO B (Homo sapiens)
# Sequence (P27338 1-520): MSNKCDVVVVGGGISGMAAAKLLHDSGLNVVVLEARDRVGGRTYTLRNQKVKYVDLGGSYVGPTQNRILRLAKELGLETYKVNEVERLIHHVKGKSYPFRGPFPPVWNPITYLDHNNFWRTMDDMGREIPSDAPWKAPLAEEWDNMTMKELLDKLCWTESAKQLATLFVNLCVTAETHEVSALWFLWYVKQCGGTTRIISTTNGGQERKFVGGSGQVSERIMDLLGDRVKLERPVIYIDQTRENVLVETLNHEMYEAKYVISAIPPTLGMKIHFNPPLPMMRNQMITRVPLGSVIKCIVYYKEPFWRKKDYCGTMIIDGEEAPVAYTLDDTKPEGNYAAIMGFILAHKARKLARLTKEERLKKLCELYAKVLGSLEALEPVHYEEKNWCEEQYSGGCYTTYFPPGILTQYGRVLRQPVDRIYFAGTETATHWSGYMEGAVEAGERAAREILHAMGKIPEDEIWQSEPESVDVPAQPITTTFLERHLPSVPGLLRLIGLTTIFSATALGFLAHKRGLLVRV
Listing of recorded IC50 by entry.
ENDPOINT NAME: IC50 (µM)

In [3]: df
Out[3]:
                    smiles_code  endpoint_name  measure_unit  qualifier_sign  endpoint_value
0  CC1=C(C)C(=O)c2cc(C)ccc2C1=O           IC50            µM               =            7.14
1       Cc1nccc2c1[nH]c1ccccc12           IC50            µM               >             100
